assayed target: T1, Peptide 4: Biotin-AGGGGSGGGGSGGGGSAAA-Tyr-acid (N-terminal biotin; C-terminal acid)
T1 construct: control peptide without PC
T1 peptide: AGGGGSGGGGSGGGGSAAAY
experiment summary: scFv ELISA
Below: a set of entries, each annotated with reported OD450.
API: value field is a number in OD450; no unit string.

Some solved cases for reference:
binder	OD450 [OD450]
PcOxP_DB01_D02 (scFv, V domains shown, scFv in periplasmic extract) VH: EVQLLESGGGLVQPGGSLRLSCAASGFEFSDFYMEWVRQAPGKGLEWVAASRGKGNSYTTEYADSVKGRFTISRDNSKNTLYLQMNSLRAEDTAVYYCARDYYGSSYWYFDVWGQGTLVTVSS VL: DIQMTQSPSSLSASVGDRVTITCTASESLYSSKHKVHYLAWYQQKPGKAPKLLIYGASNRYIGVPSRFSGSGSGTDFTLTISSLQPEDFATYYCGQFYSYPLTFGGGTKVEIK	0.05
PcOxP_DB01_B04 (scFv, V domains shown, scFv in periplasmic extract) VH: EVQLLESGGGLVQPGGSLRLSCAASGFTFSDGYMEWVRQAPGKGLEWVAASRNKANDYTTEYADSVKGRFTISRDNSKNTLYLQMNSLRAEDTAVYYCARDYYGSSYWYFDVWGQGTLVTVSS VL: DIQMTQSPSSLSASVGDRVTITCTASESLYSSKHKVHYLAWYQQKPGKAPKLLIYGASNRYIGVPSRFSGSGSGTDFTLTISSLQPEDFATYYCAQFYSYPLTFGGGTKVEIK	0.06
PcOxP_DB02_A09 (scFv, V domains shown, scFv in periplasmic extract) VH: EVQLLESGGGLVQPGGSLRLSCAASGFTFSDTYMEWVRQAPGKGLEWVAASRNKANDYTTEYADSVKGRFTISRDNSKNTLYLQMNSLRAEDTAVYYCARDYYGSSYWYFDVWGQGTLVTVSS VL: DIQMTQSPSSLSASVGDRVTITCTASESLYSSKHKVHYLAWYQQKPGKAPKLLIYGASNRQSGVPSRFSGSGSGTDFTLTISSLQPEDFATYYCAQFYWYPLTFGGGTKVEIK	0.05
PcOxP_DB02_A12 (scFv, V domains shown, scFv in periplasmic extract) VH: EVQLLESGGGLVQPGGSLRLSCAASGFTFSDDYMEWVRQAPGKGLEWVAASRNKANDYTTEYADSVKGRFTISRDNSKNTLYLQMNSLRAEDTAVYYCARDYQGSSYWYFDVWGQGTLVTVSS VL: DIQMTQSPSSLSASVGDRVTITCTASESLYSSKHKVHYLAWYQQKPGKAPKLLIYGAFNRYTGVPSRFSGSGSGTDFTLTISSLQPEDFATYYCAQFYTYPLTFGGGTKVEIK	0.05

We next turn to a different binder, shown below.
Record request: OD450 value, item PcOxP_DB02_F02 (scFv, V domains shown, scFv in periplasmic extract) VH: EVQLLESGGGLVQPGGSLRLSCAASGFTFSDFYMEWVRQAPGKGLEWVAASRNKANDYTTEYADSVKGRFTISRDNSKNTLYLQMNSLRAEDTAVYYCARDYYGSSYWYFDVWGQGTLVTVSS VL: DIQMTQSPSSLSASVGDRVTITCFASESLYSSKHKVHYLAWYQQKPGKAPKLLIYGASNRGIGVPSRFSGSGSGTDFTLTISSLQPEDFATYYCAQFYSYPLTFGGGTKVEIK
0.05
